# maps each entry to its GI50
- System: OVCAR-5 ovarian
- PROTOCOL TEXT: NCI tumour cell line growth inhibition, 48 h

// worked examples, GI50 included
{"MOLECULE": "CC1=C(CNO)C2=C(C)C3(CC3)[C@@](C)(O)C(=O)C2=C1", "GI50": "1.4 µM"}
{"MOLECULE": "CC1=C2[C@@H](CC1)[C@]1(C)O[C@@](C3CC3)(C[C@H]1OC(=O)CO)[C@H]2OC(=O)/C=C/c1ccccc1", "GI50": "17.5 µM"}

Field: next molecule
*Q* Consider the molecule shown here: CNCc1cccc2c1OCCOCCOCCC(C)S(=O)(=O)c1ccc(cc1)-c1cnc(N)c(n1)C(=O)N2 (stereo not drawn) What is its recorded GI50?
*A* 3.82 µM
